Tested on: SW-620 colon
experimental details: NCI tumour cell line growth inhibition, 48 h
outcome measure: TGI

Known TGI results, listed for orientation:
molecule | test result
CCN(CC)CCOc1ccc(C(=C(C)c2ccc(Cl)cc2)c2ccc(OCCN(CC)CC)cc2)cc1 | 1.1 µM
O=c1c2cc(S(=O)(=O)Nc3ccccc3Cl)ccc2ncn1NS(=O)(=O)c1ccc(Br)cc1 | > 37.5 µM
C=C1C(=O)C([Si](C)(C)C)=C2C=C(C)C3(CC3)C12C (stereo unspecified) | > 100 µM
NC(=O)c1cc2ccccc2oc1=Nc1ccccc1 | > 100 µM
COc1cc(/C=C/C(=O)c2sc(-n3nc(-c4ccccc4)cc3-c3ccccc3)nc2C)ccc1O | > 100 µM

Ask | Input Cc1nc2sc(CCl)nn2c(=O)c1Cl , output reported TGI.
Reply | 25.6 µM

* * *

System: HCC-2998 colon
experimental details: NCI tumour cell line growth inhibition, 48 h
outcome measure: TGI

Known TGI results, listed for orientation:
compound | test result
CC#COP(=O)(OCC)OCC | > 100 µM
c1ccc2nc(Cn3c[n+](Cc4ccc5ccccc5n4)c4ccccc43)ccc2c1 | 13.6 µM
COC(=O)[C@@H]1CSC(=S)N1C(=O)C[C@H]1CC=CC[C@H]1CC(=O)Sc1ccccc1 | 33.4 µM
CC1=C(C(=O)OCc2ccccc2)C(c2ccc3c(c2)OCO3)n2c(nc3ccccc32)N1 (stereo not given) | > 100 µM
C[C@@]12C=CC3C/C(=N\C(N)=S)C=C(CCCC4OCCO4)[C@]3(CC1)C2 (stereo not given in full) | 34.2 µM

Ask | Input COc1ccc(/C=C/c2cc(OC)c(OC)c(OC)c2)cc1O , output reported TGI.
Reply | 36.9 µM

* * *

Test system: SK-OV-3 ovarian
experimental details: NCI tumour cell line growth inhibition, 48 h
Listed next: entries and their corresponding TGI.

Ask | Input CCCCCC(=O)Nc1n[nH]nc1C(N)=O , output reported TGI.
Reply | > 100 µM

Ask | Input Nc1cc(=O)[nH]c(SC2=NC(N)CC(O)C2)n1 (stereo unspecified) , output reported TGI.
Reply | > 100 µM

Ask | Input N#Cc1ncc(/N=C/c2ccc(N(CCCl)CCCl)cc2)s1 , output reported TGI.
Reply | > 100 µM

* * *

System: NCI/ADR-RES ovarian
experimental details: NCI tumour cell line growth inhibition, 48 h; in the data active = GI50 below about 0.43 µM; inactive = the rest
Just give me one of these, please: t (active), f (inactive)

Answered cases to consult:
molecule | answer label
COc1cc2nc(Cl)nc(Nc3cccc(C(=O)/C=C/c4ccccc4)c3)c2cc1OC | f
CCn1c(-c2nonc2N)nc2cncc(C(=O)N3CCNCC3)c21 | f
COc1ccc(C(=O)/C=C/c2ccc(Cl)cc2)cc1S(=O)(=O)Nc1c(N)nc(SC)[nH]c1=O | f
COc1cc2cc(C(=O)N3CC(CCl)c4c3cc(NC(=O)C(C)(C)c3ccccc3[N+](=O)[O-])c3ccccc43)[nH]c2c(OC)c1OC (stereo not drawn) | f
c1ccc2nc(Cn3c[n+](Cc4ccc5ccccc5n4)c4ccccc43)ccc2c1 | f
CCOC(=O)Cc1c[nH]c(=S)[nH]c1=O | f
COc1cccc(C2=C(c3cn(C)c4ccccc34)C(=O)NC2=O)c1 | f

Ask | Kindly provide the recorded test outcome for the following molecule: CCCN1C(=O)/C(=c2\sc3n(c2=O)C2C(NN=3)N(CC)C(=O)N2CC)c2ccccc21 (stereo not drawn)
Reply | t

Origin of values: PubChem BioAssay (NCI)
